Tested on: Candida albicans (ATCC 10231, fungus)
experiment-notes: Minimum inhibitory concentration, microdilution assay
Format: cell-based
study-conditions: Candida albicans ~10^6 CFU/ml; YMB; room temperature; no visible growth
reported-endpoint: MIC C.A. (µg/mL)
The answer is to be given in µg/mL; state only the numeric part.

query: // query MIC C.A. value for entry CCCCCCCC[n+]1ccn(Cc2ccc(Cn3cc[n+](C/C=C/C[N+]45CC[N+](C/C=C/C[n+]6ccn(Cc7ccc(Cn8cc[n+](CCCCCCCC)c8)cc7)c6)(CC4)CC5)c3)cc2)c1.[Br-].[Br-].[Br-].[Br-].[Br-].[Br-] [IIDPBX8]
result: 62

query: // query MIC C.A. value for entry CCCCCCCC[N+]12CC[N+](Cc3ccc(C[N+]45CC[N+](CCCCCCCC)(CC4)CC5)cc3)(CC1)CC2.[Br-].[Br-].[Br-].[Br-] [DDP8]
result: 500

query: // query MIC C.A. value for entry CCCCCCCC[N+]12CC[N+](C/C=C/C[N+]34CC[N+](CCCCCCCC)(CC3)CC4)(CC1)CC2.[Br-].[Br-].[Br-].[Br-] [DDB8]
result: 125

----------
experiment-notes: Critical micelle concentration
Format: physicochemical
reported-endpoint: CMC (µg/mL)
The answer is to be given in µg/mL; state only the numeric part.

query: // query CMC value for entry CCCCCCCC[n+]1ccn(Cc2ccc(C[N+]34CC[N+](Cc5ccc(Cn6cc[n+](CCCCCCCC)c6)cc5)(CC3)CC4)cc2)c1.[Br-].[Br-].[Cl-].[Cl-]
result: 985

query: // query CMC value for entry CCCCCCCC[n+]1ccn(Cc2ccc(Cn3cc[n+](Cc4ccc(C[N+]56CC[N+](C/C=C/C[N+]78CC[N+](Cc9ccc(C[n+]%10ccn(Cc%11ccc(Cn%12cc[n+](CCCCCCCC)c%12)cc%11)c%10)cc9)(CC7)CC8)(CC5)CC6)cc4)c3)cc2)c1.[Br-].[Br-].[Br-].[Br-].[Br-].[Br-].[Br-].[Br-]
result: 727

query: // query CMC value for entry C(=C\C[N+]12CC[N+](Cc3ccc(C[n+]4ccn(Cc5ccccc5)c4)cc3)(CC1)CC2)/C[N+]12CC[N+](Cc3ccc(C[n+]4ccn(Cc5ccccc5)c4)cc3)(CC1)CC2
result: 1732

----------
For each record, write down the corresponding CMC.
experiment-notes: Critical micelle concentration
Format: physicochemical
The answer is to be given in µg/mL; state only the numeric part.

query: // query CMC value for entry CCCCCCCC[n+]1ccn(Cc2ccc(Cn3cc[n+](C/C=C/C[N+]45CC[N+](C/C=C/C[n+]6ccn(Cc7ccc(Cn8cc[n+](CCCCCCCC)c8)cc7)c6)(CC4)CC5)c3)cc2)c1.[Br-].[Br-].[Br-].[Br-].[Br-].[Br-] [IIDPBX8]
result: 291

query: // query CMC value for entry CCCCCCCC[n+]1ccn(Cc2ccccc2C[N+]23CC[N+](Cc4ccccc4Cn4cc[n+](CCCCCCCC)c4)(CC2)CC3)c1.[Br-].[Br-].[Br-].[Br-] [IDIO8]
result: 1667

query: // query CMC value for entry CCCCCCCC[N+]12CC[N+](C/C=C/C[N+]34CC[N+](CCCCCCCC)(CC3)CC4)(CC1)CC2.[Br-].[Br-].[Br-].[Br-] [DDB8]
result: 1552

query: // query CMC value for entry CCCCCCCC[n+]1ccn(Cc2ccc(C[N+]34CC[N+](Cc5ccc(C[N+]67CC[N+](Cc8ccc(Cn9cc[n+](CCCCCCCC)c9)cc8)(CC6)CC7)cc5)(CC3)CC4)cc2)c1.[Br-].[Br-].[Br-].[Br-].[Br-].[Br-] [IDPPX8]
result: 1552

query: // query CMC value for entry c1ccc(Cn2cc[n+](Cc3ccc(C[N+]45CC[N+](Cc6ccc(C[N+]78CC[N+](Cc9ccc(C[n+]%10ccn(Cc%11ccccc%11)c%10)cc9)(CC7)CC8)cc6)(CC4)CC5)cc3)c2)cc1 [IDPPXb]
result: 1860

query: // query CMC value for entry CCCCCCCC[N+]12CC[N+](Cc3ccccc3C[N+]34CC[N+](CCCCCCCC)(CC3)CC4)(CC1)CC2.[Br-].[Br-].[Br-].[Br-] [DDO8]
result: 3038

query: // query CMC value for entry CCCCCCCC[n+]1ccn(Cc2ccc(C[n+]3ccn(Cc4ccc(C[n+]5ccn(Cc6ccccc6Cn6cc[n+](Cc7ccc(Cn8cc[n+](Cc9ccc(Cn%10cc[n+](CCCCCCCC)c%10)cc9)c8)cc7)c6)c5)cc4)c3)cc2)c1 [IBN-C8, reference compound]
result: 226

query: // query CMC value for entry CCCCCCCC[N+]12CC[N+](Cc3ccc(C[N+]45CC[N+](CCCCCCCC)(CC4)CC5)cc3)(CC1)CC2.[Br-].[Br-].[Br-].[Br-] [DDP8]
result: 1896

query: // query CMC value for entry CCCCCCCC[n+]1ccn(CC=CC[N+]23CC[N+](CC=CCn4cc[n+](CCCCCCCC)c4)(CC2)CC3)c1.[Br-].[Br-].[Br-].[Br-] [IDIB8]
result: 1829

query: // query CMC value for entry CCCCCCCC[n+]1ccn(Cc2ccc(C[N+]34CC[N+](C/C=C/C[N+]56CC[N+](Cc7ccc(Cn8cc[n+](CCCCCCCC)c8)cc7)(CC5)CC6)(CC3)CC4)cc2)c1.[Br-].[Br-].[Br-].[Br-].[Br-].[Br-] [IDPBX8]
result: 1456
